# assay-details: chemical genetic growth profiling, strain panel (AID 1159580);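 further: tested at 20 µM; growth read once vehicle control cultures reached saturation at 30 °C; 1 = growth at the plate median or of vehicle wells; lower values mean less growth of the strain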
# condition: S. cerevisiae deletion strains, growth OD, locus YDR477W, strain SNF1
About 2,000 (36%) of roughly 5,500 compounds were called active. Roughly 18% stayed inconclusive and do not appear here. No stated cut-off is given here; in the data, active means normalized growth mostly below about 0.91 (no sharp cut-off); inconclusive means no clear call, values can overlap the other calls; inactive means mostly above about 0.92. The list shows a part of the results.
Pick from active, inactive when you respond.

# example entries with known answers
>  <compound>
O=C1/C(=C/c2c(F)cccc2Cl)Cc2ccccc21

>  <discrete-label>
inactive

$$$$
>  <compound>
COc1ccccc1C(C[N+](=O)[O-])c1c(N)n(C)c(=O)n(C)c1=O (stereo not drawn)

>  <discrete-label>
active

$$$$
>  <compound>
OC(c1ccc(C(F)(F)F)cc1)c1cccc(C(F)(F)F)c1 (stereo not drawn)

>  <discrete-label>
inactive

$$$$
>  <compound>
CCOC(=O)c1c(N=Cc2cc(Br)c(Br)cc2O)sc2c1CCCC2

>  <discrete-label>
active

$$$$
>  <compound>
COCCOc1ccccc1NC(=S)SCCSC(=S)Nc1ccccc1OCCOC

>  <discrete-label>
inactive

$$$$

-- ask Which result was noted for this compound in the test: `CN(C)/C=C/C(=O)c1ccc(C#Cc2ccccc2)cc1`
-- reply inactive

-- ask Which result was noted for this compound in the test: `COc1cc(C(=O)Oc2c(Cl)cc(Cl)cc2C=Nc2cccc([N+](=O)[O-])c2)cc(OC)c1OC`
-- reply active

-- ask Which result was noted for this compound in the test: `COc1ccccc1NC(=O)Nc1nn(C)c2cccc(OC)c12`
-- reply inactive

---

# assay-details: chemical genetic growth profiling, strain panel (AID 1159580)
# condition: S. cerevisiae deletion strains, growth OD, locus YJL129C, strain trk1, hits give low values
About 2,000 (36%) of roughly 5,500 compounds were called active. About 18% were inconclusive and are not listed. Some of the results follow.
reported-property: normalized growth
Number only, no unit.

As a guide, the following entries are already answered.
>  <molecule>
COc1ccc(CN(CCN(C)C)c2ncccn2)cc1

>  <normalized growth>
1.01

$$$$
>  <molecule>
Cc1ccc(C(C)C)cc2c(C)ccc1-2

>  <normalized growth>
1.01

$$$$
>  <molecule>
NC(=O)c1ccc(N)nc1

>  <normalized growth>
1.01

$$$$
>  <molecule>
CC1(C)CC2C1CCC1(C)OC2(C)CCC1O (centres undefined)

>  <normalized growth>
1.05

$$$$
>  <molecule>
C[C@@H]1CC2C3CCC4=CC(=O)C=C[C@]4(C)[C@@]3(F)[C@@H](O)C[C@]2(C)[C@@]1(O)C(=O)COP(=O)(O)O (some centres undefined)

>  <normalized growth>
0.942

$$$$

-- ask If you can, please state the reported normalized growth value of CC1(C)CC2C1CCC1(C)OC1CCC2(C)O (centres undefined) .
-- reply 1.08

---

# assay-details: chemical genetic growth profiling, strain panel (AID 1159580)
# condition: S. cerevisiae deletion strains, growth OD, locus YOR144C, strain elg1
About 2,000 (36%) of roughly 5,500 compounds were called active. Roughly 18% stayed inconclusive and do not appear here. Cut-off read from the data, not from the text of the source: active = normalized growth mostly below about 0.91 (no sharp cut-off); inconclusive = no clear call, values can overlap the other calls; inactive = mostly above about 0.92. Some of the results follow.
Pick from TRUE for active, FALSE for inactive when you respond.

>  <molecule>
CC1=C(/C=C/C(C)=C/C=C/C(C)=C/C=C/C=C(C)/C=C/C=C(C)/C=C/C2=C(C)CCCC2(C)C)C(C)(C)CCC1

>  <discrete-label>
FALSE

$$$$
>  <molecule>
CC(=O)Oc1cc(C)c2c(c1C(OC(C)=O)OC(C)=O)Oc1c(c(C)c(OC(C)=O)c3c1C(OC(C)=O)OC3=O)OC2=O (centres undefined)

>  <discrete-label>
FALSE

$$$$

-- ask Which result was noted for this molecule in the test: CC[C@@H](C(=O)[C@@H](C)[C@@H](O)[C@H](C)[C@@H]1O[C@@H]([C@@H](CC)C(=O)O)CC[C@@H]1C)[C@H]1OC2(C=C[C@@H](O)[C@]3(CC[C@@](C)([C@H]4CC[C@](O)(CC)[C@H](C)O4)O3)O2)[C@H](C)C[C@@H]1C (some centres undefined)
-- reply TRUE

-- ask Which result was noted for this molecule in the test: `O=C(/C=C/c1ccc(O)c(O)c1)O[C@@H]1C[C@](O)(C(=O)O)C[C@@H](O)[C@H]1O`
-- reply FALSE

-- ask Which result was noted for this molecule in the test: `C=CC1=C(C)/C(=C/c2[nH]c(Cc3[nH]c(/C=C4\NC(=O)C(C)=C4C=C)c(C)c3CCC(=O)O)c(CCC(=O)O)c2C)NC1=O`
-- reply FALSE

---

# assay-details: chemical genetic growth profiling, strain panel (AID 1159580);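 further: tested at 20 µM; growth read once vehicle control cultures reached saturation at 30 °C; 1 = growth at the plate median or of vehicle wells; lower values mean less growth of the strain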
# condition: S. cerevisiae deletion strains, growth OD, locus YLR262C, strain YPT6 (second series)
Hit rate of the full screen: of about 5,500 compounds, about 2,000 (36%) were called active. Another 18% or so got no clear call; they are omitted. Rule as the data show it: active = normalized growth mostly below about 0.91 (no sharp cut-off); inconclusive = no clear call, values can overlap the other calls; inactive = mostly above about 0.92. This is one part of the list.
Pick from True for active, False for inactive when you respond.

# example entries with known answers
>  <molecule>
COc1ccc(-c2cc(C(F)F)nn2-c2ccc(S(N)(=O)=O)cc2)cc1F

>  <discrete-label>
False

$$$$
>  <molecule>
Nc1nc2ncc(CNc3ccc(C(=O)N[C@@H](CCC(=O)O)C(=O)O)cc3)nc2c(=O)[nH]1

>  <discrete-label>
False

$$$$
>  <molecule>
CCOP(=S)(OCC)Oc1ccc2c(C)c(Cl)c(=O)oc2c1

>  <discrete-label>
False

$$$$
>  <molecule>
CCOC(=O)C1=C[C@]2(CC)CCCN3CCc4c(n1c1ccccc41)[C@@H]32

>  <discrete-label>
False

$$$$

-- ask Which result was noted for this molecule in the test: `Cc1ccc(C(C)C)cc2c(C)ccc1-2`
-- reply False

-- ask Which result was noted for this molecule in the test: `CCOC(N)=O`
-- reply False

---

Below, each entry is listed alongside its reported normalized growth.
# assay-details: chemical genetic growth profiling, strain panel (AID 1159580);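 further: tested at 20 µM; growth read once vehicle control cultures reached saturation at 30 °C; 1 = growth at the plate median or of vehicle wells; lower values mean less growth of the strain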
# condition: S. cerevisiae deletion strains, growth OD, locus YOR265W, strain rbl2, hits give low values
The whole screen tested about 5,500 compounds, of which about 2,000 (36%) were called active. Not shown: some 18% with an inconclusive outcome. This is one part of the list.
Number only, no unit.

>  <molecule>
CC[C@]12CCCN3CCc4c(n(c5ccccc45)[C@](O)(C(=O)OC)C1)[C@@H]32

>  <normalized growth>
0.995

$$$$
>  <molecule>
CC1=C(/C=C/C(C)=C/C=C/C(C)=C/CO)C(C)(C)CCC1

>  <normalized growth>
1

$$$$
>  <molecule>
NC(=O)c1cc[n+](CC2=C(C(=O)O)N3C(=O)C(NC(=O)C(c4ccccc4)S(=O)(=O)[O-])C3SC2)cc1 (configuration not stated)

>  <normalized growth>
1

$$$$

-- ask If you can, please state the reported normalized growth value of Nc1c(Br)cc(Br)cc1CNC1CCC(O)CC1 (configuration not stated) .
-- reply 1.01

-- ask If you can, please state the reported normalized growth value of COc1ccc(C[C@H](N)C(=O)N[C@@H]2[C@@H](CO)OC(n3cnc4c(N(C)C)ncnc43)[C@@H]2O)cc1 (some centres not stated) .
-- reply 0.991

-- ask If you can, please state the reported normalized growth value of `CC[C@]12CCCN3CCc4c(n(c5ccccc45)C(=O)C1)[C@@H]32` .
-- reply 0.994

-- ask If you can, please state the reported normalized growth value of `CC1=C(/C=C/C(C)=C/C=C/C(C)=C\C(=O)O)C(C)(C)CCC1` .
-- reply 0.987

-- ask If you can, please state the reported normalized growth value of CC(=O)O[C@H]1CC[C@@]2(C)C(=CCC3C2CC[C@@]2(C)C3CC[C@@H]2C(C)CCCC(C)C)C1 (some centres not stated) .
-- reply 0.995

---

Below, each entry is listed alongside its reported normalized growth.
# assay-details: chemical genetic growth profiling, strain panel (AID 1159580);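 further: tested at 20 µM; growth read once vehicle control cultures reached saturation at 30 °C; 1 = growth at the plate median or of vehicle wells; lower values mean less growth of the strain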
# condition: S. cerevisiae deletion strains, growth OD, locus YPL106C, strain sse1, hits give low values
About 2,000 (36%) of roughly 5,500 compounds were called active. Inconclusive results (about 18%) are left out. The list shows a part of the results.
Number only, no unit.

As a guide, the following entries are already answered.
>  <smiles-string>
O=C1CN(/N=C\c2ccc([N+](=O)[O-])o2)C(=O)N1

>  <normalized growth>
0.964

$$$$
>  <smiles-string>
NC(=O)N/N=C\c1ccc([N+](=O)[O-])o1

>  <normalized growth>
0.956

$$$$

-- ask If you can, please state the reported normalized growth value of `O=C1N=C(O)CN1/N=C\c1ccc(-c2ccc([N+](=O)[O-])cc2)o1` .
-- reply 0.981

-- ask If you can, please state the reported normalized growth value of `COc1ccc(CN(CCN(C)C)c2ncccn2)cc1` .
-- reply 0.994

-- ask If you can, please state the reported normalized growth value of `C=CC1=C(C)/C(=C/c2[nH]c(Cc3[nH]c(/C=C4\NC(=O)C(C)=C4C=C)c(C)c3CCC(=O)O)c(CCC(=O)O)c2C)NC1=O` .
-- reply 0.949
